tested_target: CFTR (Homo sapiens)
experiment_summary: Membrane Potential Dye, Enteroid Assay A
Assay type: cell-based
condition_info: read-out: Ent. A EC50
value_type: EC50

Here's what some known entries look like.
compound | measurement
COC(=O)N1CCCC2(CC(N3C(=O)c4cccc(c4)S(=O)(=O)Nc4nc(cc(-c5c(C)cccc5C)n4)OC[C@H]3CC(C)C)C2)C1 (stereo partly drawn) [Compound 324] | < 1000 nM
Cc1cccc(C)c1-c1cc2nc(n1)NS(=O)(=O)c1cccc(c1)C(=O)N([C@H]1C[C@@H](NC(=O)OC(C)(C)C)C1)[C@H](CC(C)C)CO2 | < 1000 nM

Could you now consider this next compound?
Requested read-out: EC50. Entry: `Cc1cccc(C)c1-c1cc2nc(n1)NS(=O)(=O)c1cccc(c1)C(=O)N(C1CC3(CCN(CCC(F)(F)F)CC3)C1)[C@H](CC(C)C)CO2`
< 1000 nM

====

tested_target: CFTR (Homo sapiens)
experiment_summary: Membrane Potential Dye, Enteroid Assay B
Format: cell-based
condition_info: Table 9
value_type: Ent. B Max Activity (%)

compound | value_type | measurement
Cc1cccc(C)c1-c1cc2nc(n1)NS(=O)(=O)c1cccc(c1)C(=O)N(C1CC(N(C)C3CCC3)C1)[C@H](CC(C)C)CO2 (stereo partly drawn) | Ent. B Max Activity (%) | +++ (+++ is >60%)
COC(=O)NC1CC(N2C(=O)c3cccc(c3)S(=O)(=O)Nc3nc(cc(-c4c(C)cccc4C)n3)OC[C@H]2CC2(C(F)(F)F)CC2)C1 (single isomer, unassigned) [Compound 58] | Ent. B Max Activity (%) | +++ (+++ is >60%)
Cc1cccc(C)c1-c1cc2nc(n1)NS(=O)(=O)c1cccc(c1)C(=O)N(C1CC3(CCN(CCOC4CC4)CC3)C1)[C@H](CC(C)C)CO2 | Ent. B Max Activity (%) | +++ (+++ is >60%)

====

tested_target: CFTR (Homo sapiens)
experiment_summary: Membrane Potential Dye, Enteroid Assay B
Assay type: cell-based
condition_info: Table 10, read-out: Ent. B EC50
The following molecules are listed with their measured EC50 values.

So what's the measured EC50 for this one? `Cc1cccc(C)c1-c1cc2nc(n1)NS(=O)(=O)c1cccc(c1)C(=O)N(c1cnn(C(C)C)c1)[C@H](CC(C)(C)C)CO2`
< 1000 nM

Entry Cc1cccc(C)c1-c1cc2nc(n1)NS(=O)(=O)c1cccc(n1)C(=O)N(C1CC3(C1)CC(C(C)(C)O)C3)[C@H](CC(C)(C)C)CO2 (single isomer, unassigned) [Compound 161] : reported EC50 = ?
< 1000 nM

Would you kindly share the measured EC50 for Cc1cccc(C)c1-c1cc2nc(n1)NS(=O)(=O)c1cccc(c1)C(=O)N(C1CC(NC(=O)OC(C)C)C1)[C@H](CC(C)(C)C(F)(F)F)CO2 (single isomer, unassigned) [Compound 192] ?
< 1000 nM

====

tested_target: CFTR (Homo sapiens, UniProt P13569)
Sequence (P13569 with tags, fused parts or gaps DEL508-508): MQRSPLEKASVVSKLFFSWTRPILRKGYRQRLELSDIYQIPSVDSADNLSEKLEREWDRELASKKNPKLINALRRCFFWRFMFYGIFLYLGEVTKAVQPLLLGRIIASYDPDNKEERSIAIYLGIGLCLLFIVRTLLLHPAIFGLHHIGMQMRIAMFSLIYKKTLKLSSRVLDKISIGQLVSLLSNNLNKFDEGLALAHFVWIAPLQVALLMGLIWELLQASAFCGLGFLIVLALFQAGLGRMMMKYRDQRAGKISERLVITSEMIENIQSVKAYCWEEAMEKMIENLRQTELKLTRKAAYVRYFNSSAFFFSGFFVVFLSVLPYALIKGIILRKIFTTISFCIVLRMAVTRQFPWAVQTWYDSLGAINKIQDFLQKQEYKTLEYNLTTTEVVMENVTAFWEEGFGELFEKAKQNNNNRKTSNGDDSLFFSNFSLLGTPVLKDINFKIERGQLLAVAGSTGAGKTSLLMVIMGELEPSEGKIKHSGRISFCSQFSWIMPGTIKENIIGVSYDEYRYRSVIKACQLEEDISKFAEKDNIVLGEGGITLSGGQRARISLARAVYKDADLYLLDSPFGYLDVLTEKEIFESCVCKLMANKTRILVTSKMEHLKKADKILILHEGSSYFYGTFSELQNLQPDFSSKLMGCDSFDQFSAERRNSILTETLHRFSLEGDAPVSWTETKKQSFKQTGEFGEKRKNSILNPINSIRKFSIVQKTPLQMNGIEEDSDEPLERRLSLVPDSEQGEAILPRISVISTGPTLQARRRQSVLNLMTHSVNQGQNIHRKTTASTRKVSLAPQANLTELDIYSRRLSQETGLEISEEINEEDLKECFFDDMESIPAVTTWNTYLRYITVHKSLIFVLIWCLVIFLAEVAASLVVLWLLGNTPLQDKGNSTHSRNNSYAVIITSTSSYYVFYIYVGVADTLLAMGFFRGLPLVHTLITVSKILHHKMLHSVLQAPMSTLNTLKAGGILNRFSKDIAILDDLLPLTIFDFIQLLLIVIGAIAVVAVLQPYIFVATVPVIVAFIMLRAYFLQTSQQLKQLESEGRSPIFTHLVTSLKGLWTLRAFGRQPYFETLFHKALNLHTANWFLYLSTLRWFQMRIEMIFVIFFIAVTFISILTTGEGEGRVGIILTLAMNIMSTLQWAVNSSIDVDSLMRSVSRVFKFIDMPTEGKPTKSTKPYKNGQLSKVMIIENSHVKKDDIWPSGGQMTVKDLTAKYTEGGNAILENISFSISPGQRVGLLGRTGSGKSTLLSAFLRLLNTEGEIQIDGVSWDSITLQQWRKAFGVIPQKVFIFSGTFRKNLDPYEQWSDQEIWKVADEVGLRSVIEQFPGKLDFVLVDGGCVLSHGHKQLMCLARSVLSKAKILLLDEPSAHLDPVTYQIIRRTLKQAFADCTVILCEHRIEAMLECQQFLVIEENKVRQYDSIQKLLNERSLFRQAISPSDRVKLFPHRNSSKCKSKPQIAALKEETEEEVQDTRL
experiment_summary: Membrane Potential Dye, Enteroid Assay B
Assay type: cell-based
condition_info: Table 10
value_type: Ent. B Max Activity (%)

compound | value_type | measurement
Cc1cccc(C)c1-c1cc2nc(n1)NS(=O)(=O)c1cccc(c1)C(=O)N(C1CC3(CC(NC(=O)OC(C)(C)C)C3)C1)[C@H](CC(C)(C)C)CO2 (stereo partly drawn) | Ent. B Max Activity (%) | +++ (+++ is >60%)
[H][C@]1(N2C(=O)c3cccc(c3)S(=O)(=O)Nc3nc(cc(-c4c(C)cccc4C)n3)OC[C@H]2CC(C)C)C[C@@]2(C[C@H](NC(=O)OC(C)C)C2)C1 (single isomer, unassigned) [Compound 123] | Ent. B Max Activity (%) | +++ (+++ is >60%)

====

tested_target: CFTR (Homo sapiens)
experiment_summary: Membrane Potential Dye, Enteroid Assay B
Format: cell-based
condition_info: Table 9, read-out: Ent. B EC50
Below, each of the compounds is paired with its reported EC50 value.

Item under review: CN[C@H]1C[C@]2(C1)C[C@H](N1C(=O)c3cccc(c3)S(=O)(=O)Nc3nc(cc(-c4c(C)cccc4C)n3)OC[C@H]1CC1(C(F)(F)F)CC1)C2 (some centres unmarked) . Reported EC50?
< 1000 nM

// returns reported EC50 for input `CC(=O)N1CCC2(CC1)CC(N1C(=O)c3cccc(c3)S(=O)(=O)Nc3nc(cc(-c4c(C)cccc4C)n3)OC[C@H]1CC(C)(C)C(F)(F)F)C2`
< 1000 nM

Endpoint output: EC50 of CN[C@H]1CC2(C1)C[C@H](N1C(=O)c3cccc(c3)S(=O)(=O)Nc3nc(cc(-c4c(C)cccc4C)n3)OC[C@H]1CC(C)C)C2 (some centres unmarked) . Value?
< 1000 nM

Form field: reported EC50 of CC(=O)N[C@H]1C[C@@]2(C1)C[C@H](N1C(=O)c3cccc(c3)S(=O)(=O)Nc3nc(cc(-c4c(C)cccc4C)n3)OC[C@H]1CC1(C(F)(F)F)CC1)C2 (some centres unmarked)
< 1000 nM

Need EC50, item `CO[C@@H](C)C(=O)N1CCC2(CC1)CC(N1C(=O)c3cccc(c3)S(=O)(=O)Nc3nc(cc(-c4c(C)cccc4C)n3)OC[C@H]1CC(C)C)C2`
< 1000 nM

====

tested_target: CFTR (Homo sapiens, UniProt P13569)
experiment_summary: Membrane Potential Dye, Enteroid Assay B
Type: cell-based
condition_info: Table 9, read-out: Ent. B EC50
value_type: EC50

compound | value_type | measurement
COC(=O)NC1CC2(C1)CC(N1C(=O)c3cccc(c3)S(=O)(=O)Nc3nc(cc(-c4c(C)cccc4C)n3)OC[C@H]1CC(C)(C)C(F)(F)F)C2 (single isomer, unassigned) | EC50 | < 1000 nM
Cc1cccc(C)c1-c1cc2nc(n1)NS(=O)(=O)c1cccc(c1)C(=O)N(C1CC3(CCN(C(=O)[C@H](C)O)CC3)C1)[C@H](CC(C)C)CO2 | EC50 | < 1000 nM

Now let's try a different one.
Entry `Cc1cccc(C)c1-c1cc2nc(n1)NS(=O)(=O)c1cccc(c1)C(=O)N(C1CC3(CCN(C(=O)COC(C)(C)C)CC3)C1)[C@H](CC(C)C)CO2` has what EC50?
< 1000 nM

====

tested_target: CFTR (Homo sapiens, UniProt P13569)
experiment_summary: Membrane Potential Dye, Enteroid Assay B
Format: cell-based
condition_info: Table 9, read-out: Ent. B EC50
Below, each of the molecules is paired with its reported EC50 value.

Known EC50 results, listed for orientation:
molecule | measurement
Cc1cccc(C)c1-c1cc2nc(n1)NS(=O)(=O)c1cccc(c1)C(=O)N([C@H]1C[C@@H](N)C1)[C@H](CC1(C(F)(F)F)CC1)CO2 (single isomer, unassigned) | < 1000 nM
COC(=O)N1CCC2(CC1)CC(N1C(=O)c3cccc(c3)S(=O)(=O)Nc3nc(cc(-c4c(C)cccc4C)n3)OC[C@H]1CC(C)(C)C(F)(F)F)C2 | < 1000 nM

Now for another entry.
Consider the molecule Cc1cccc(C)c1-c1cc2nc(n1)NS(=O)(=O)c1cccc(c1)C(=O)N(C1CC(NC(=O)OC(C)C)C1)[C@H](CC(C)(C)C)CO2 (stereo in doubt) [Compound 450] and give its measured EC50.
< 1000 nM

====

tested_target: CFTR (Homo sapiens, UniProt P13569)
experiment_summary: Membrane Potential Dye, Enteroid Assay B
Assay type: cell-based
condition_info: read-out: Ent. B EC50
Measured EC50 of individual entries

// solved cases for EC50 follow
compound | EC50
Cc1cccc(C)c1-c1cc2nc(n1)NS(=O)(=O)c1cccc(c1)C(=O)N(C1CC3(CCN(CCOC(C)C)CC3)C1)[C@H](CC(C)C)CO2 [Compound 300] | < 1000 nM
CC(C)C[C@@H]1COc2cc(C3CCCCC3(C)C)nc(n2)NS(=O)(=O)c2cccc(c2)C(=O)N1C1CC2(CCN(C)CC2)C1 (stereo partly drawn) [Compound 394] | 1000 to 3000 nM

Fill in the blank: the reported EC50 of Cc1cccc(C)c1-c1cc2nc(n1)NS(=O)(=O)c1cccc(c1)C(=O)N(C1CC3(CC3)C1)[C@@H](CC(C)C)CO2 [Compound 474] is ____.
< 1000 nM

====

tested_target: CFTR (Homo sapiens, UniProt P13569)
experiment_summary: Membrane Potential Dye, Enteroid Assay B
Format: cell-based
condition_info: Table 10
value_type: Ent. B Max Activity (%)

compound | value_type | measurement
Cc1cccc(C)c1-c1cc2nc(n1)NS(=O)(=O)c1cccc(c1)C(=O)N(C1CC3(COC(=O)N3)C1)[C@H](CC(C)(C)C)CO2 (single isomer, unassigned) [Compound 175] | Ent. B Max Activity (%) | ++ (++ is 30-60%)
COC(=O)NC1(C)CC(N2C(=O)c3cccc(c3)S(=O)(=O)Nc3nc(cc(-c4c(C)cccc4C)n3)OC[C@H]2CC(C)(C)C)C1 (single isomer, unassigned) [Compound 172] | Ent. B Max Activity (%) | +++ (+++ is >60%)
Cc1cccc(C)c1-c1cc2nc(n1)NS(=O)(=O)c1cccc(n1)C(=O)N([C@H]1C[C@@H](C(C)(C)O)C1)[C@H](CC(C)(C)C)CO2 [Compound 410] | Ent. B Max Activity (%) | +++ (+++ is >60%)
CCC(=O)N(C)C1CC(N2C(=O)c3cccc(c3)S(=O)(=O)Nc3nc(cc(-c4c(C)cccc4C)n3)OC[C@H]2CC(C)(C)C)C1 (single isomer, unassigned) [Compound 240] | Ent. B Max Activity (%) | ++ (++ is 30-60%)
